Reported melting point values for a set of molecules

COC(=O)c1cc2c(c(-c3cc4ccccc4n3Cc3ccc(OC)cc3)n1)c1ccccc1n2Cc1ccc(OC)cc1 [18da]
106 to 108 °C
CCOC(=O)c1cc2oc3ccccc3c2c(-c2cc3ccccc3o2)n1
141 to 143 °C
COC(=O)c1cc2c(c(-c3cc4ccccc4n3C)n1)c1ccccc1n2C
210 to 212 °C
CCOC(=O)c1cc2c(c(-c3cc4ccccc4n3C)n1)c1ccccc1n2C
175 to 177 °C

*Q* Need melting point of CC(C)(C)OC(=O)c1cc2c(c(-c3cc4ccccc4n3Cc3ccccc3)n1)c1ccccc1n2Cc1ccccc1 [18bc] , thanks.
*A* 148 to 150 °C

----------
# Test system: MCF-7
# TEST NAME: Crystal violet cytotoxicity assay, MCF-7
# Type: cell-based
# ASSAY SETUP: Homo sapiens, MCF7, 48 h incubation, triplicate
Reported IC50 values for a set of compounds
// note: answer is a bare numeric in µM

Look over these answered cases.
CC(C)(C)OC(=O)c1cc2c(c(-c3cc4ccccc4n3Cc3ccccc3)n1)c1ccccc1n2Cc1ccccc1 [18bc]
7.07
COC(=O)C1=Cc2c(c3ccccc3n2S(=O)(=O)c2ccc(C)cc2)C(c2cc3ccccc3n2S(=O)(=O)c2ccc(C)cc2)N1 (stereo not shown) [18fa]
3.71

*Q* Need IC50 of COC(=O)c1cc2c(c(-c3cc4ccccc4n3Cc3ccc(OC)cc3)n1)c1ccccc1n2Cc1ccc(OC)cc1 [18da] , thanks.
*A* 2.99

*Q* Need IC50 of Cn1c(-c2nc(C(=O)OC(C)(C)C)cc3c2c2ccccc2n3C)cc2ccccc21 [18ac] , thanks.
*A* 5.59
